Target: Avi-KRAS G12R (1-169) GppNHp/RAF1 RBD-3xFLAG (52-151) (Homo sapiens, UniProt P01116, G12R)
Construct: Avi-KRAS G12R (1-169)
Sequence (P01116 1-169 isoform P01116-2 G12R): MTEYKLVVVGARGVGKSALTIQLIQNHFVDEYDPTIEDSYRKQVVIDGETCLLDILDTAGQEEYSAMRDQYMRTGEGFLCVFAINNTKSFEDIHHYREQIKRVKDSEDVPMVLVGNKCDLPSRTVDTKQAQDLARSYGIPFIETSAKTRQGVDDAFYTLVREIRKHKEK
Experiment: Raf1-KRAS G12R-GppNHP disruption HTRF assay (Biological Example 1)
Type: binding
Settings: KRAS G12R, GppNHp-loaded; Table 11
Method: A protein:protein interaction (PPI) Homogeneous Time Resolved Fluorescence (HTRF) assay was used to determine the effectiveness of compounds of the present disclosure in disrupting KRAS protein and effector RAF1 binding. The assay buffer included: 50 mM Tris pH 7.5, 100 mM NaCl, 5 mM MgCl2, 0.1% BSA, 0.01% Tween, and 10% DMSO. The bead buffer included: 50 mM Tris pH 7.5, and 0.01% Tween 20. […] Data was reported as percentage of activity, with DMSO as 100%. Data was plotted and analyzed using Prism 8.
quantity: IC50

compound	IC50
CC(=O)N1C[C@@H](F)[C@@H](N(C)c2nc(OC[C@@]34CCCN3C[C@H](F)C4)nc3c(F)c(-c4ccc(F)c5sc(N)c(C#N)c45)c(C(F)(F)F)cc23)C1	100 to 1000 nM
CN(c1nc(OC[C@@]23CCCN2C[C@H](F)C3)nc2c(F)c(-c3ccc(F)c4sc(N)c(C#N)c34)c(C(F)(F)F)cc12)[C@H]1C[C@@H](O)C1 [Compound 19]	< 100 nM
CC(=O)N1CCC(N(C)c2nc(OCC34CCCN3CC(F)C4)nc3c(F)c(-c4ccc(F)c5scc(C#N)c45)c(C(F)(F)F)cc23)C1 (stereo not drawn)	> 10000 nM
CN(CC1(CO)CC1)c1nc(OC[C@@]23CCCN2C[C@H](F)C3)nc2c(F)c(-c3ccc(F)c4sc(N)c(C#N)c34)c(C(F)(F)F)cc12	100 to 1000 nM
N#Cc1c(N)sc2c(F)ccc(-c3c(C(F)(F)F)cc4c(N5CC6CCC5CO6)nc(OC[C@@]56CCCN5C[C@H](F)C6)nc4c3F)c12 (stereo partly drawn)	100 to 1000 nM

Problem: What value of IC50 has been reported for the following compound? "N#Cc1c(N)sc2c(F)ccc(-c3c(C(F)(F)F)cc4c(N5CCC(CO)CC5)nc(OC[C@@]56CCCN5C[C@H](F)C6)nc4c3F)c12"
Result: 100 to 1000 nM

Problem: Which IC50 reading was recorded for the compound "CCN(c1nc(OC[C@@]23CCCN2C[C@H](F)C3)nc2c(F)c(-c3ccc(F)c4sc(N)c(C#N)c34)c(C(F)(F)F)cc12)[C@@H]1CCN(C(C)=O)C1" ?
Result: < 100 nM

Problem: Could you share which IC50 value was measured for "Nc1nc2c(-c3c(C(F)(F)F)cc4c(N5CCC(CO)CC5)nc(OCC56CCCN5CCC6)nc4c3F)ccc(F)c2s1" ?
Result: 1000 to 10000 nM

Problem: Consider the compound Nc1nc2c(-c3c(C(F)(F)F)cc4c(N5CCC(O)C5)nc(OCC56CCCN5CCC6)nc4c3F)ccc(F)c2s1 (stereo not drawn) and give its measured IC50.
Result: > 10000 nM

Problem: Query: IC50; subject: "CCC(=O)N1CC[C@@H](N(C)c2nc(OC[C@@]34CCCN3C[C@H](F)C4)nc3c(F)c(-c4ccc(F)c5sc(N)c(C#N)c45)c(C(F)(F)F)cc23)C1"
Result: 100 to 1000 nM

Problem: Which IC50 is listed for "CC(=O)N1C[C@@H](N(C)c2nc(OC[C@@]34CCCN3C[C@H](F)C4)nc3c(F)c(-c4ccc(F)c5sc(N)c(C#N)c45)c(C(F)(F)F)cc23)C[C@H]1CO" ?
Result: 100 to 1000 nM

Problem: Which IC50 value is on record for CN(c1nc(OC[C@@]23CCCN2C[C@H](F)C3)nc2c(F)c(-c3ccc(F)c4sc(N)c(C#N)c34)c(C(F)(F)F)cc12)[C@]1(CC#N)C[C@H](O)C1 (atropisomer, axis not shown) ?
Result: 100 to 1000 nM

----------
IC50 overview
biological target: Avi-KRAS WT (1-169) GppNHp/RAF1 RBD-3xFLAG (52-151) (Homo sapiens, UniProt P01116); construct: Avi-KRAS WT (1-169); test: Raf1-KRAS WT-GppNHP disruption HTRF assay (Biological Example 1); format: binding; conditions: KRAS WT-GppNHp/RAF1 RBD HTRF
Sequence (P01116 1-169 isoform P01116-2): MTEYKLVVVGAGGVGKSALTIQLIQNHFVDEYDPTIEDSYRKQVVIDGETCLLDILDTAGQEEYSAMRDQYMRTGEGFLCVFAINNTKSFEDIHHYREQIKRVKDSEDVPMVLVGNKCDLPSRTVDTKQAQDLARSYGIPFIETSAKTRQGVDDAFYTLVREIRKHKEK

Consider the reported IC50 for these molecules:
molecule	IC50
CCN(c1nc(OC[C@@]23CCCN2C[C@H](F)C3)nc2c(F)c(-c3ccc(F)c4sc(N)c(C#N)c34)c(C(F)(F)F)cc12)[C@H]1C[C@H](C)N(C(=O)N(C)C)C1 (atropisomer, axis not shown)	0.1 to 1 µM
CCC(=O)N1CC[C@@H](N(C)c2nc(OC[C@]34CCCN3C[C@H](F)C4)nc3c(F)c(-c4ccc(F)c5sc(N)c(C#N)c45)c(C(F)(F)F)cc23)[C@H]1C (atropisomer, axis not shown)	1 to 10 µM
N#Cc1c(N)sc2c(F)ccc(-c3c(C(F)(F)F)cc4c(N5CCc6[nH]ncc6C5)nc(OCC56CCCN5CC(F)C6)nc4c3F)c12 (centres unmarked)	1 to 10 µM

Problem: Which IC50 value belongs to "N#Cc1c(N)sc2c(F)ccc(-c3c(C(F)(F)F)cc4c(N5C[C@H]6C[C@@H]5[C@@H](O)C6)nc(OC[C@@]56CCCN5C[C@H](F)C6)nc4c3F)c12" ?
Result: 1 to 10 µM

Problem: Entry CCN(c1nc(OC[C@@]23CCCN2C[C@H](F)C3)nc2c(F)c(-c3ccc(F)c4sc(N)c(C#N)c34)c(C(F)(F)F)cc12)[C@H]1CCN(C(=O)C(C)(C)C)C1 (atropisomer, axis not shown) has what IC50?
Result: < 0.1 µM

----------
target: Avi-KRAS WT (1-169) GppNHp/RAF1 RBD-3xFLAG (52-151) (Homo sapiens); construct: Avi-KRAS WT (1-169); assay: Raf1-KRAS WT-GppNHP disruption HTRF assay (Biological Example 1); assay type: binding; settings: KRAS WT, GppNHp-loaded; Table 11
IC50 values for the compounds below.

smiles.code	target.system	measured.value
CN(c1nc(OC[C@@]23CCCN2C[C@H](F)C3)nc2c(F)c(-c3ccc(F)c4sc(N)c(C#N)c34)c(C(F)(F)F)cc12)C1CCC1	Avi-KRAS WT (1-169) GppNHp/RAF1 RBD-3xFLAG (52-151) (Homo sapiens)	100 to 1000 nM
CC(=O)N1CCN(c2nc(OC[C@@]34CCCN3C[C@H](F)C4)nc3c(F)c(-c4ccc(F)c5sc(N)c(C#N)c45)c(C(F)(F)F)cc23)[C@@H](C)C1	Avi-KRAS WT (1-169) GppNHp/RAF1 RBD-3xFLAG (52-151) (Homo sapiens)	100 to 1000 nM

Problem: Observed IC50 on Avi-KRAS WT (1-169) GppNHp/RAF1 RBD-3xFLAG (52-151) (Homo sapiens) for "CN(c1nc(OC[C@@]23CCCN2C[C@H](F)C3)nc2cc(-c3ccc(F)c4sc(N)c(C#N)c34)c(C(F)(F)F)cc12)[C@H]1C[C@@H](O)C1" , please.
Result: 100 to 1000 nM

----------
system: SW1900 cells (KRAS G12D); assay: 3D Cell viability assay in SW1900 cells (Biological Example 6); format: cell-based; conditions: Homo sapiens; SW1990 (text: SW1900, KRAS G12D) spheroids, 72 hours
Readings of IC50 for the listed molecules

molecule	IC50
N#Cc1c(N)sc2c(F)ccc(-c3c(C(F)(F)F)cc4c(N5CC6CC(C5)O6)nc(OC[C@@]56CCCN5C[C@H](F)C6)nc4c3F)c12 (single isomer, unassigned)	≤ 100 nM

Problem: Looking for the measured IC50 of "CCN(c1nc(OC[C@@]23CCCN2C[C@H](F)C3)nc2c(F)c(-c3ccc(F)c4sc(N)c(C#N)c34)c(C(F)(F)F)cc12)[C@@H]1CCN(C(C)=O)C1" , can you help?
Result: ≤ 100 nM

Problem: Form field: reported IC50 of "CC(=O)N1CC[C@@H](N(C)c2nc(OC[C@@]34CCCN3C[C@H](F)C4)nc3c(F)c(-c4ccc(F)c5sc(N)c(C#N)c45)c(Cl)cc23)[C@H]1C"
Result: 100 to 1000 nM

Problem: Please give the measured IC50 for this molecule: "C[C@@H]1[C@H](N(C)c2nc(OC[C@@]34CCCN3C[C@H](F)C4)nc3c(F)c(-c4ccc(F)c5sc(N)c(C#N)c45)c(C(F)(F)F)cc23)CCN1C(=O)C1CC1"
Result: ≤ 100 nM

Problem: GET /values?readout=IC50&item= CCN(c1nc(OC[C@@]23CCCN2C[C@H](F)C3)nc2c(F)c(-c3ccc(F)c4sc(N)c(C#N)c34)c(C(F)(F)F)cc12)[C@H]1C[C@H]2CN(C)C(=O)N2C1 (atropisomer, axis not shown; (aS))
Result: ≤ 100 nM
